What IC50 was measured for each of the following?
# measurement.target: Sphingosine 1-phosphate receptor 1 (Homo sapiens)
# experiment.description: human S1P1 antagonists, dose response, counter-screen for S1PR3 antagonist project, cell-based, luminescence, late-stage (AID 743422)
# run.parameters: Tango EDG-1-bla U2OS cells, beta-lactamase FRET reporter, 5 h S1P
Activity calls are given as the source filed them. No rule for the calls is given here.

(Q) Form entry - test system: Sphingosine 1-phosphate receptor 1 (Homo sapiens); read-out: IC50; compound: O=C(NC(c1ccc(Cl)cc1)c1nc(-c2cccc(Cl)c2)no1)c1cccc(Cl)c1 (centres undefined)
(A) > 28.2 µM (inactive)

(Q) Form entry - test system: Sphingosine 1-phosphate receptor 1 (Homo sapiens); read-out: IC50; compound: O=C(NC(c1ccccc1)c1nc(-c2ccccc2)no1)c1cccc(Cl)c1 (centres undefined)
(A) 1.6 µM

(Q) Form entry - test system: Sphingosine 1-phosphate receptor 1 (Homo sapiens); read-out: IC50; compound: Cc1ccc(C(=O)NC(c2ccccc2)c2nc(-c3ccccc3)no2)cc1 (centres undefined)
(A) > 28.2 µM (inactive)

###

# measurement.target: Sphingosine 1-phosphate receptor 1 (Homo sapiens) (UniProt P21453)
# Sequence (P21453 whole entry, looked up): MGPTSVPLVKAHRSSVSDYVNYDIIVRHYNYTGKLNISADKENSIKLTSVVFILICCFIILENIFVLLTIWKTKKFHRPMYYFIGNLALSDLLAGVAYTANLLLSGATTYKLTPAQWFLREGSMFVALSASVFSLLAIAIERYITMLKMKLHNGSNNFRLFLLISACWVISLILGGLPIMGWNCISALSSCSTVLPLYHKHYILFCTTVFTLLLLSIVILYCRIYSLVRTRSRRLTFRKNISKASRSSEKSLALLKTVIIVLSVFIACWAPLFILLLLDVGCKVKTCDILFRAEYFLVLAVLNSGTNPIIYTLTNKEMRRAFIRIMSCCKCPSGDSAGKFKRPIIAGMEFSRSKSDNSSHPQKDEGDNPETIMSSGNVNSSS
# experiment.description: human S1P1 antagonists, dose response, counter-screen for S1PR3 antagonist project, cell-based, luminescence, late-stage (AID 743422)
# run.parameters: Tango EDG-1-bla U2OS cells, beta-lactamase FRET reporter, 5 h S1P
Calls of active or inactive are those of the source. No rule for the calls is given here.
// allowed return values: active, inactive

(Q) Hi team, can someone confirm the assay call for O=C(NC(c1cccc(Cl)c1)c1nc(-c2ccccc2)no1)c1cc(Cl)cc(Cl)c1 (stereo not given) ?
(A) active

(Q) Hi team, can someone confirm the assay call for O=C(NC(c1ccc(Cl)cc1)c1nc(-c2ccccn2)no1)c1cccc(Cl)c1 (stereo not given) ?
(A) inactive

(Q) Hi team, can someone confirm the assay call for O=C(NC(Cc1ccccc1)c1nc(-c2ccccc2)no1)c1cccc(Cl)c1 (stereo not given) ?
(A) inactive

(Q) Hi team, can someone confirm the assay call for O=C(NC(c1ccc(Cl)cc1)c1nc(-c2ccccc2)no1)c1cccc(Cl)c1 (stereo not given) ?
(A) inactive

(Q) Hi team, can someone confirm the assay call for O=C(NC(c1ccc(Br)cc1)c1nc(-c2ccccc2)no1)c1ccc(Cl)c(Cl)c1 (stereo not given) ?
(A) inactive

(Q) Hi team, can someone confirm the assay call for O=C(NC(c1ccccc1)c1nc(-c2ccccc2)no1)c1ccc(Cl)cc1 (stereo not given) ?
(A) active

(Q) Hi team, can someone confirm the assay call for O=C(c1cccc(Cl)c1)N(CCO)C(c1ccc(Cl)c(Cl)c1)c1nc(-c2ccccc2)no1 (stereo not given) ?
(A) active

(Q) Hi team, can someone confirm the assay call for CCc1ccc(C(NC(=O)c2cccc(Cl)c2)c2nc(-c3ccccc3)no2)cc1 (stereo not given) ?
(A) inactive

(Q) Hi team, can someone confirm the assay call for COc1ccc(C(=O)NC(c2ccccc2)c2nc(-c3ccccc3)no2)cc1 (stereo not given) ?
(A) inactive

(Q) Hi team, can someone confirm the assay call for O=C(NC(c1ccc(Cl)c(Cl)c1)c1nc(-c2ccccc2)no1)c1ccc(Cl)cc1 (stereo not given) ?
(A) active
